test: Intrinsic clearance in rat liver microsomes assessed per mg of protein in presence of UDPGA; type: ADME, Microsome
property-label: microsomal CLint

Please list microsomal CLint recorded for the compound CN(C)CCN(C)[C@H]1COc2ccccc2-c2c(C3CCCCC3)c3ccc(C(=O)O)cc3n2C1
< 4 µL/min/mg

====

experiment: Cmax in dog at 1 mg/kg, iv and 2 mg/kg, po; type: ADME, organism-based, Canis lupus familiaris; conditions: in vivo
property-label: Cmax (nM)
Enter your answer as a number in nM; do not include the unit.

Item CN(C)CCN(C)[C@H]1COc2ccccc2-c2c(C3CCCCC3)c3ccc(C(=O)O)cc3n2C1 : provide Cmax
1000

====

Catalogue of Kp at 6 h readings, one per entry.
assay: Ratio of drug level in liver to plasma in Sprague-Dawley rat liver at 3 mg/kg, po after 6 hrs; format: ADME, organism-based; design: dose 3 mg/kg, route oral
Lab note: record the figure alone, no unit after it.

INSERT INTO results (compound, property_label, val) VALUES
  ('CN(C)CCN(C)[C@H]1COc2ccccc2-c2c(C3CCCCC3)c3ccc(C(=O)O)cc3n2C1', 'Kp at 6 h', 5),
  ('CCN(CC)C1CCN(C(=O)Cn2c(-c3ccc(Cl)cc3)c(C3CCCCC3)c3ccc(C(=O)O)cc32)CC1', 'Kp at 6 h', 16);

Moving on to the next compound.
Give Kp at 6 h for CN(C)CCNC1COc2ccccc2-c2c(C3CCCCC3)c3ccc(C(=O)O)cc3n2C1 (racemic)
21

====

assay: Intrinsic clearance in dog liver microsomes assessed per mg of protein presence of UDPGA; assay type: ADME, Canis lupus familiaris, Microsome
property-label: microsomal CLint

Check the records and state microsomal CLint for CN(C)CCN(C)[C@H]1COc2ccccc2-c2c(C3CCCCC3)c3ccc(C(=O)O)cc3n2C1
< 4 µL/min/mg

====

assay: Drug level in Sprague-Dawley rat liver at 3 mg/kg, po after 6 hrs; format: ADME, organism-based; set-up: dose 3 mg/kg, route oral; details: read-out: Drug uptake
Catalogue of molecules with associated concentration at 6 h
Form entry: value (nM) — number only.

INSERT INTO results (molecule, property_label, val) VALUES
  ('CN(C)CCNC1COc2ccccc2-c2c(C3CCCCC3)c3ccc(C(=O)O)cc3n2C1 (racemic)', 'concentration at 6 h', 1300),
  ('CN(C)CCN1CCn2c(c(C3CCCCC3)c3ccc(C(=O)O)cc32)-c2ccccc2C1', 'concentration at 6 h', 640);

// next entry
// fetch concentration at 6 h given entry CN(C)CCN(C)[C@H]1COc2ccccc2-c2c(C3CCCCC3)c3ccc(C(=O)O)cc3n2C1 [MK-3281]
420

====

assay: Clearance in Sprague-Dawley rat at 3 mg/kg, iv and 3 mg/kg, po; type: ADME, organism-based; conditions: in vivo
property-label: clearance (mL/min/kg)
// units = mL/min/kg; emit number, no label

Check the records and state clearance for CN(C)CCN(C)[C@H]1COc2ccccc2-c2c(C3CCCCC3)c3ccc(C(=O)O)cc3n2C1
22

====

experiment: Clearance in rhesus monkey at 2 mg/kg, iv and 4 mg/kg, po; format: ADME, organism-based, Macaca mulatta; conditions: in vivo
property-label: clearance (mL/min/kg)
The answer is to be given in mL/min/kg; state only the numeric part.

Identify clearance associated with the compound CN(C)CCN(C)[C@H]1COc2ccccc2-c2c(C3CCCCC3)c3ccc(C(=O)O)cc3n2C1
7

====

experiment: Volume of distribution at steady state in rhesus monkey at 2 mg/kg, iv and 4 mg/kg, po; assay type: ADME, organism-based, Macaca mulatta; settings: in vivo, read-out: Vdss
property-label: Vd (L/kg)
Could you give me the number in L/kg? Just the number is fine.

Report Vd for CN(C)CCN(C)[C@H]1COc2ccccc2-c2c(C3CCCCC3)c3ccc(C(=O)O)cc3n2C1 [MK-3281]
2.2

====

assay: Intrinsic clearance in human liver microsomes assessed per mg of protein; format: ADME, Microsome
Each entry below carries its reported microsomal CLint.
Report the value in µL/min/mg with no unit label.

INSERT INTO measurements (compound, property_label, val) VALUES
  ('CN(C)CCNC1COc2ccccc2-c2c(C3CCCCC3)c3ccc(C(=O)O)cc3n2C1 (racemic)', 'microsomal CLint', 5),
  ('CN(C)CCN1CCn2c(c(C3CCCCC3)c3ccc(C(=O)O)cc32)-c2ccccc2C1', 'microsomal CLint', 5);

API: the following record is the query input.
Supply microsomal CLint value. Item: CN(C)CCN(C)[C@H]1COc2ccccc2-c2c(C3CCCCC3)c3ccc(C(=O)O)cc3n2C1 [MK-3281]
7
